- tested system: Histone deacetylase 3 (Homo sapiens, UniProt O15379)
- Sequence (O15379 whole entry): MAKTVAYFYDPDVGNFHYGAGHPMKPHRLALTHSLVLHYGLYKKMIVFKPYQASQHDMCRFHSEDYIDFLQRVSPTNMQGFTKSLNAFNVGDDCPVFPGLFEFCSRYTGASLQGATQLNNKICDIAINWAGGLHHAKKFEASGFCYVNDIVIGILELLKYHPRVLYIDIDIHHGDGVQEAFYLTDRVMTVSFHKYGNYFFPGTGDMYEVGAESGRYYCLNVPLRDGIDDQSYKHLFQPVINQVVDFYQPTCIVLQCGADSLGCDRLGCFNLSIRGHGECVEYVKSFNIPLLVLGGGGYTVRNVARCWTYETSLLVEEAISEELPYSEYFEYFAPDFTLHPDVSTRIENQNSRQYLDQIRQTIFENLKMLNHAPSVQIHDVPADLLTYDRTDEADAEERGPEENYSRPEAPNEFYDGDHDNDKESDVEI
- assay notes: Inhibition of human recombinant HDAC3
pIC50 for assorted compounds
# pIC50 is unitless: minus log10 of the molar concentration; print number only

Known results for compounds:
INSERT INTO results (given_smiles, val) VALUES
  ('N=C(N)NCCC[C@H](N)C(=O)NCC(=O)N[C@@H](CCCCCC(=O)Nc1ccccc1N)C(=O)Nc1ccccc1N', 5.89),
  ('Cc1ccc(C(=O)NCC(=O)NCCC(=O)Nc2ccccc2N)cc1', 5.37),
  ('Nc1ccccc1NC(=O)CCCCC[C@H](NC(=O)[C@H]1CCCN1C(=O)[C@@H](N)Cc1ccccc1)C(=O)N[C@@H](Cc1ccccc1)C(=O)O', 4.57);

What value of pIC50 has been recorded for this entry: Nc1ccccc1NC(=O)CCCCC[C@H](NC(=O)[C@@H]1CCCN1C(=O)[C@@H](N)Cc1ccccc1)C(=O)Nc1ccccc1N
5.47

Suppose we examine the compound Cc1ccc(C(=O)N[C@@H](CCCN=C(N)N)C(=O)NCCC(=O)Nc2ccccc2N)cc1 ; what pIC50 value has been reported?
5.66

Can you look up the measured pIC50 of Nc1ccccc1NC(=O)CCCCC[C@@H]1NC(=O)[C@H]2CCCN2C(=O)[C@H](Cc2ccccc2)NC(=O)[C@H](Cc2ccccc2)NC1=O for me?
5.25
